# Tested Target: human glucagon receptor (human, UniProt P47871 26-477)
# Sequence (P47871 26-477): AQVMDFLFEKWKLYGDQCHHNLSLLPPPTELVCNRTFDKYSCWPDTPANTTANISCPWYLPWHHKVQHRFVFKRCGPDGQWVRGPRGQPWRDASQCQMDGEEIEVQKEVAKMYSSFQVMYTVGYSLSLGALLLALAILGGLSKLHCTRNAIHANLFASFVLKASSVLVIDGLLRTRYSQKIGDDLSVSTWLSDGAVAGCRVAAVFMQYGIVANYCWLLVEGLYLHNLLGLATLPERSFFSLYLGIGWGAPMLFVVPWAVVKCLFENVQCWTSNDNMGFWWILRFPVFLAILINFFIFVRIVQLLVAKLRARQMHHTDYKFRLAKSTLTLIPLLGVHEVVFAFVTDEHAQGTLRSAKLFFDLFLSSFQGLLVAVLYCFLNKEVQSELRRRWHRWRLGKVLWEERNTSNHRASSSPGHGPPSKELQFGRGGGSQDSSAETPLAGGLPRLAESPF
# Assay Overview: cell-based or functional assay
Assay Readout: EC50 hGlucagon-R (cAMP) (pM)
Hi! Could you send only the number? It should be in pM, unit omitted.

Incoming: Reported EC50 hGlucagon-R (cAMP) for HXQGTFTSDLSKQKESXAAQDFIEWLKAGGPSSGAPPPS (dSer at 2; K(γE-x53) at 14; Aib at 17; C-terminal NH2) [SEQ ID NO: 14] : what is it?
Outgoing: 94.7

Incoming: Which EC50 hGlucagon-R (cAMP) value is on record for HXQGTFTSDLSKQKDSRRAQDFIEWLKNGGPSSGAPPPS (dSer at 2; K(γE-x53) at 14; C-terminal NH[(CH2-CH2-O)24-CH2-CH2-COOH]) [SEQ ID NO: 105] ?
Outgoing: 1

Incoming: # query: EC50 hGlucagon-R (cAMP) of entry HXQGTFTSDLSKQKESRRAQDFIEWLKEGGPSSGRPPPS (dSer at 2; K(γE-x53) at 14; C-terminal NH2) [SEQ ID NO: 82]
Outgoing: 4.7

Incoming: Request the reported EC50 hGlucagon-R (cAMP) associated with HXQGTFTSDLSKQKDSQAAQDFIEWLKAGGPSSGAPPPS (dSer at 2; K(γE-x53) at 14; C-terminal NH2) [SEQ ID NO: 39]
Outgoing: 7.6

Incoming: Item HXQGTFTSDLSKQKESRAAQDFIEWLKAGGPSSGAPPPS (dSer at 2; K(γE-x70) at 14; C-terminal NH2) [SEQ ID NO: 65] has what recorded EC50 hGlucagon-R (cAMP)?
Outgoing: 5.6
